# MEASURED ON: Erh1 (Erh1wt) (Schizosaccharomyces pombe)
# Construct: A region of Erh1 (residues 1–104) was amplified by PCR; made in house; host or cells: Escherichia coli BL21 (Gold)
# Sequence (G2TRN4 1-104): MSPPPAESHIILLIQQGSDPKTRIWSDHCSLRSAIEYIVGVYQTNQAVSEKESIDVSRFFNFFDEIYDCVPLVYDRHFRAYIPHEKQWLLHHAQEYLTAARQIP
# ASSAY DETAILS: Isothermal titration calorimetry (ITC), SUMO-tagged Mmi1 peptides titrated into wild-type Erh1
# Type: binding, S. pombe
# EXPERIMENTAL CONDITIONS: Erh1wt; ITC, 293 K, 20 mM Tris-HCl pH 7.5, 150 mM NaCl; SUMO-tagged Mmi1 peptide
Primed or numbered codes have the meaning given here. Where no end group is shown, it is not given here. SUMO″ = SUMO fusion tag (N-terminal); SUMO = SUMO tag, N-terminal
Could you mark each record YES if its -TΔS falls strictly under 10 kJ per mol, and NO if it equals or exceeds it?

Examples from the recorded data:
Mmi1Y106A: Mmi1 peptide mutant Y106A ({SUMO}-GKYDFSRHCTDAGHSYEWPYFRSLRRES; not fully specified) : NO
Mmi1H108A: Mmi1 peptide mutant H108A ({SUMO}-GKYDFSRHCTDYGASYEWPYFRSLRRES; not fully specified) : YES
Mmi1F99A: Mmi1 peptide mutant F99A ({SUMO}-GKYDASRHCTDYGHSYEWPYFRSLRRES; not fully specified) : YES
Mmi1^106–122: further truncated Mmi1 fragment, residues 106–122 ({SUMO″}-YGHSYEWPYFRSLRRES; not fully specified) : NO
Mmi1Y110A: Mmi1 peptide mutant Y110A ({SUMO}-GKYDFSRHCTDYGHSAEWPYFRSLRRES; not fully specified) : NO

## Task Bench note: check whether Mmi1R119A: Mmi1 peptide mutant R119A ({SUMO}-GKYDFSRHCTDYGHSYEWPYFRSLARES; not fully specified) shows -TΔS below 10 kJ per mol
## Result NO

## Task hey, is -TΔS for Mmi1F115A: Mmi1 peptide mutant F115A ({SUMO}-GKYDFSRHCTDYGHSYEWPYARSLRRES; not fully specified) lower than 10 kJ per mol or not?
## Result NO

## Task State whether 10 kJ per mol exceeds -TΔS recorded for Mmi1Y114A: Mmi1 peptide mutant Y114A ({SUMO}-GKYDFSRHCTDYGHSYEWPAFRSLRRES; not fully specified) .
## Result NO
